Entry source: the supplement of paper PMC13094657

- Test system: MDA-MB-231
- Assay Remarks: kynurenine production, fold change vs DMSO IFNg/TNF control; higher = more kynurenine produced (less inhibition)
- Measurement Conditions: pre-treatment time: 18 h then 24 h IFNg/TNF
Provide the reported kynurenine production of each item.
No unit in the answer, please; the number alone is enough.

input: # get_value(readout='kynurenine production', item= COC(=O)C1=CO[C@@H](O[C@@H]2O[C@H](CO)[C@@H](O)[C@H](O)[C@H]2O)[C@@H]2C(CO)=C[C@H](O)[C@H]12 [Methyl deacetylasperulosidate] (compound dose: 10 uM) )
output: 1.15

input: Same lookup for C=C1[C@@H]2CC[C@@H]3[C@](C2)(C(=O)[C@@H](O)[C@@H]2C(C)(C)[C@H]4CC(=O)[C@@]32CO4)[C@@H]1OC(C)=O [Maoecrystal A] (compound dose: 10 uM) , please.
output: 0.866

input: // repeat for C[C@@H]1CC[C@@]2(OC1)O[C@H]1C[C@H]3[C@@H]4CC=C5C[C@@H](O[C@@H]6O[C@H](CO)[C@@H](O)[C@H](O[C@@H]7O[C@H](CO)[C@@H](O)[C@H](O)[C@H]7O)[C@H]6O[C@@H]6O[C@@H](C)[C@H](O)[C@@H](O)[C@H]6O)CC[C@]5(C)[C@H]4CC[C@]3(C)[C@H]1[C@@H]2C [Gracillin] (compound dose: 10 uM) and report
output: 0.202

input: Repeat with COc1cc2c(=O)c3c(O)c([C@@H]4O[C@H](CO[C@@H]5OC[C@](O)(CO)[C@H]5O)[C@@H](O)[C@H](O)[C@H]4O)c(O)cc3oc2cc1O [Polygalaxanthone III] (compound dose: 10 uM)
output: 1.01

----------
- Tested on: MDA-MB-231
- Assay Remarks: kynurenine production, fold change vs DMSO IFNg/TNF control; higher = more kynurenine produced (less inhibition)
- Measurement Conditions: pre-treatment time: 18 h then 24 h IFNg/TNF
Endpoint Label: kynurenine production

input: Hi! What's the reported kynurenine production for C[C@H]1O[C@@H](O[C@H]2CC[C@@]3(C)[C@@H](CC[C@]4(C)[C@@H]3C=CC3=C5CC(C)(C)CC[C@]5(CO)[C@H](O)C[C@]34C)[C@]2(C)CO)[C@H](O)[C@@H](O[C@@H]2O[C@H](CO)[C@@H](O)[C@H](O)[C@H]2O)[C@H]1O [Saikosaponin B2] (compound dose: 10 uM) on MDA-MB-231?
output: 0.739

input: Now consider C[C@H]1O[C@@H](O[C@H]2CC[C@@]3(C)[C@@H](CC[C@]4(C)[C@@H]3C=C[C@]35OC[C@@]6(CCC(C)(C)C[C@H]63)[C@@H](O)C[C@]54C)[C@]2(C)CO)[C@H](O)[C@@H](O[C@@H]2O[C@H](CO)[C@@H](O)[C@H](O)[C@H]2O)[C@H]1O [Saikosaponin A] (compound dose: 10 uM) and answer again.
output: 0.824

input: Try CC1CCC2(O)C(C)(C)C3CCC2(C)C1C3 (centres undefined) [Patchouli alcohol] (compound dose: 10 uM) next.
output: 1.04

input: For O=C(O)C1=CO[C@@H](O[C@@H]2O[C@H](CO)[C@@H](O)[C@H](O)[C@H]2O)[C@@H]2C(CO)=C[C@H](O)[C@H]12 [Deacetylasperulosidic acid] (compound dose: 10 uM) then?
output: 1.07

----------
Can you tell me kynurenine production for the items I'm about to list?
- System: MDA-MB-231
- Assay Remarks: kynurenine production, fold change vs DMSO IFNg/TNF control; higher = more kynurenine produced (less inhibition)
- Measurement Conditions: pre-treatment time: 18 h then 24 h IFNg/TNF
Give the figure by itself; no unit, no explanation.

input: Fill in the blank: the reported kynurenine production of CC(=O)O[C@@H]1[C@@H](O)[C@H](O[C@H]2CC[C@]34C[C@]35CC[C@]3(C)[C@@H]([C@@]6(C)CC[C@@H](C(C)(C)O)O6)[C@@H](O)C[C@@]3(C)[C@@H]5C[C@H](O[C@@H]3O[C@H](CO)[C@@H](O)[C@H](O)[C@H]3O)[C@H]4C2(C)C)OC[C@H]1O [Isoastragaloside II] (compound dose: 10 uM) is ____.
output: 0.968

input: Input CC(=O)O[C@H]1CC(=O)OC(C)(C)[C@@H]2CC(=O)[C@]3(C)[C@H](CC[C@@]4(C)[C@@H](c5ccoc5)OC(=O)[C@H]5O[C@]543)[C@@]12C [Nomilin] (compound dose: 10 uM)
output: 0.942

input: Would you mind doing CC1(C)[C@@H](O)CC[C@]2(C)[C@H]3C(=O)C=C4[C@H]5C[C@@](C)(C(=O)O)CC[C@]5(C)CC[C@@]4(C)[C@]3(C)CC[C@@H]12 [18α-Glycyrrhetinic acid] (compound dose: 10 uM) as well?
output: 0.943

input: Now the compound CC(C)C1=CC2=CC[C@@H]3[C@](C)(CCC[C@@]3(C)C(=O)O)[C@H]2CC1 [Abietic acid] (compound dose: 10 uM)
output: 0.803

----------
I'd appreciate it if you could supply cell viability values for the items below.
- System: MDA-MB-231
- Assay Remarks: cell viability relative to vehicle unstimulated control (fraction); higher = more viable cells
- Measurement Conditions: pre-treatment time: 18 h then 24 h IFNg/TNF
Write no unit; give the number alone.

input: Consider the molecule shown here: CC(=O)O[C@H]1C(=O)[C@@]2(C)[C@H]([C@H](OC(=O)c3ccccc3)[C@]3(O)C[C@H](OC(=O)[C@H](O)[C@@H](NC(=O)c4ccccc4)c4ccccc4)C(C)=C1C3(C)C)[C@]1(OC(C)=O)CO[C@@H]1C[C@@H]2O [Paclitaxel] (compound dose: 10 uM) What is its recorded cell viability?
output: 0.827

input: Repeat for the following molecule: CC(C)=CCC/C(C)=C/CO [Geraniol] (compound dose: 10 uM)
output: 0.998

input: What do you get for C=C(C)[C@H]1CC=C(C)CC1 [(r)-(+)-limonene] (compound dose: 10 uM) ?
output: 0.986

input: // same read-out, input: CC(=O)O[C@H]1C(=O)[C@@]2(C)[C@H]([C@H](OC(=O)c3ccccc3)[C@]3(O)C[C@H](OC(=O)[C@H](O)[C@@H](NC(=O)c4ccccc4)c4ccccc4)C(C)=C1C3(C)C)[C@]1(OC(C)=O)CO[C@@H]1C[C@@H]2O [7-epi-Taxol] (compound dose: 10 uM)
output: 0.791

input: How about this molecule: C=C1C(=O)O[C@H]2[C@H]1CCC(C)=C1CC[C@@](C)(O)[C@@H]12 [Micheliolide] (compound dose: 10 uM)
output: 0.904

----------
- Tested on: MDA-MB-231
- Assay Remarks: cell viability relative to vehicle unstimulated control (fraction); higher = more viable cells
- Measurement Conditions: pre-treatment time: 18 h then 24 h IFNg/TNF
Provide the recorded cell viability for the entries that follow.
The reply should be a number, written without any unit.

input: // returns reported cell viability for input COC(=O)C1=CO[C@@H](O[C@@H]2O[C@H](CO)[C@@H](O)[C@H](O)[C@H]2O)[C@@H]2C(CO)=CC[C@H]12 [Geniposide] (compound dose: 10 uM)
output: 0.947

input: Next up: C[C@H]1O[C@@H](Oc2c(-c3cc(O)c(O)c(O)c3)oc3cc(O)cc(O)c3c2=O)[C@@H](O)[C@@H](O)[C@@H]1O [Myricitrin] (compound dose: 10 uM)
output: 0.988

input: Query CC(=O)O[C@@H]1C[C@H](O)[C@@]23CO[C@@H](O)[C@]1(C)[C@@H]2C[C@@H](O)[C@]1(C)[C@@H]3C(=O)[C@H](OC(C)=O)[C@@]2(C)[C@H](c3ccoc3)C[C@H]3O[C@]321 [Toosendanin] (compound dose: 10 uM) next
output: 0.858

input: What about this compound? COC(=O)[C@@]1(C)CC[C@]2(C(=O)O)CC[C@]3(C)C(=CC[C@@H]4[C@@]5(C)C[C@H](O)[C@H](O)[C@@](C)(CO)[C@@H]5CC[C@]43C)[C@@H]2C1 [Phytolaccagenin] (compound dose: 10 uM)
output: 0.924

input: For C[C@H](CC(=O)C[C@@H](C)[C@H]1C[C@H](O)[C@@]2(C)C3=C(C(=O)C[C@]12C)[C@@]1(C)CCC(=O)C(C)(C)[C@@H]1C[C@@H]3O)C(=O)O [Ganoderic acid A] (compound dose: 10 uM) then?
output: 0.889

input: And what about the compound CC(=O)OC1C2C(OC(=O)c3ccccc3)C(C)CC2(OC(C)=O)C(=O)C(C)=CC2C(CCC13CO3)C2(C)C (stereo not given) [Euphorbia factor L25] (compound dose: 10 uM) ?
output: 1.06

input: Moving on to Cc1coc2c1C(=O)C(=O)c1c-2ccc2c(C)cccc12 [Tanshinone I] (compound dose: 2 uM)
output: 0.921

input: Repeat for the following compound: C[C@H]1[C@H](C)CC[C@]2(C(=O)O)CC[C@]3(C)C(=CC[C@@H]4[C@@]5(C)CCC(=O)C(C)(C)[C@@H]5CC[C@]43C)[C@H]12 [Ursonic acid] (compound dose: 10 uM)
output: 0.923

input: C[C@H]1O[C@@H](O[C@H]2CC[C@@]3(C)[C@@H](CC[C@]4(C)[C@@H]3C=CC3=C5CC(C)(C)CC[C@]5(CO)[C@H](O)C[C@]34C)[C@]2(C)CO)[C@H](O)[C@@H](O[C@@H]2O[C@H](CO)[C@@H](O)[C@H](O)[C@H]2O)[C@H]1O [Saikosaponin B2] (compound dose: 10 uM) ?
output: 1.05

input: Let us now turn to C[C@@H]1[C@H]2[C@H](O[C@@H]3O[C@H](CO)[C@@H](O)[C@H](O)[C@H]3O)OC=C(C(=O)O)[C@H]2C[C@@H]1O [Loganic acid] (compound dose: 10 uM)
output: 0.999
